assay: Immunostimulant activity in Balb/c mouse T cells assessed as inhibition of concanavalin A-induced cell proliferation at 10^-6 M after 48 hrs by MTT assay; assay type: functional
Consider the following molecules and their measured inhibition at 1 µM readings.
Express the result in % but write the number alone.

Cc1cc(OCc2cnnn2-c2ccc(-c3ccccc3)cc2)c(C)c2c1CC[C@H]1[C@H](C)C(=O)O[C@@H]21    35.4
Cc1cc(OCc2cnnn2-c2ccc(F)cc2)c(C)c2c1CC[C@H]1[C@H](C)C(=O)O[C@@H]21    12.8
COc1c(Br)cc(C)cc1-n1nncc1COc1cc(C)c2c(c1C)[C@@H]1OC(=O)[C@@H](C)[C@@H]1CC2    5.71
CC(=O)Oc1cc(C)c2c(c1C)[C@@H]1OC(=O)[C@@H](C)[C@@H]1CC2    18.3

(Q) Could you tell me which inhibition at 1 µM is on file for `C#CCOc1cc(C)c2c(c1C)[C@@H]1OC(=O)[C@@H](C)[C@@H]1CC2` ?
(A) 24.4

(Q) I have this molecule here, `Cc1cc(OCc2cnnn2-c2ccc3ccccc3c2)c(C)c2c1CC[C@H]1[C@H](C)C(=O)O[C@@H]21` , and I need its recorded inhibition at 1 µM.
(A) 12.2

(Q) Given `COc1ccc(-n2nncc2COc2cc(C)c3c(c2C)[C@@H]2OC(=O)[C@@H](C)[C@@H]2CC3)cc1OC` , state its recorded inhibition at 1 µM.
(A) 75.6

(Q) Give the measured inhibition at 1 µM of `Cc1cc(OCc2cnnn2-c2ccc(Br)c3ccccc23)c(C)c2c1CC[C@H]1[C@H](C)C(=O)O[C@@H]21` .
(A) 30

(Q) For the molecule shown here, `Cc1cc(OCc2cnnn2-c2cc(F)c(F)cc2Br)c(C)c2c1CC[C@H]1[C@H](C)C(=O)O[C@@H]21` , give the reported inhibition at 1 µM.
(A) 21.4

###

assay: Immunostimulant activity in Balb/c mouse B cells assessed as inhibition of LPS-induced cell proliferation at 10^-5 M after 48 hrs by MTT assay; type: functional
Metric: inhibition at 10 µM
Remember to follow the number with its unit.

Below are worked cases with known answers.
Cc1cc(OCc2cnnn2-c2ccccc2)c(C)c2c1CC[C@H]1[C@H](C)C(=O)O[C@@H]21    8.57%
Cc1cc(OCc2cnnn2-c2ccc(F)cc2)c(C)c2c1CC[C@H]1[C@H](C)C(=O)O[C@@H]21    10%

(Q) // query inhibition at 10 µM value for entry `Cc1cc(OCc2cnnn2/C=C/c2ccccc2)c(C)c2c1CC[C@H]1[C@H](C)C(=O)O[C@@H]21`
(A) 48.7%

(Q) Given the entry `COc1c(Br)cc(C)cc1-n1nncc1COc1cc(C)c2c(c1C)[C@@H]1OC(=O)[C@@H](C)[C@@H]1CC2` , report its measured inhibition at 10 µM.
(A) 28.6%

(Q) What value of inhibition at 10 µM has been reported for the following compound? `COc1ccc(F)c(-n2nncc2COc2cc(C)c3c(c2C)[C@@H]2OC(=O)[C@@H](C)[C@@H]2CC3)c1Br`
(A) 1.42%

(Q) What does the data say about its inhibition at 10 µM? Entry: `CCCOc1ccc(-n2nncc2COc2cc(C)c3c(c2C)[C@@H]2OC(=O)[C@@H](C)[C@@H]2CC3)cc1Cl`
(A) 12.8%

(Q) Request the reported inhibition at 10 µM associated with `Cc1cc(OCc2cnnn2-c2ccc(Br)cc2)c(C)c2c1CC[C@H]1[C@H](C)C(=O)O[C@@H]21`
(A) 36.8%

(Q) Value lookup for inhibition at 10 µM; key = `Cc1cc(OCc2cnnn2-c2cccc([N+](=O)[O-])c2)c(C)c2c1CC[C@H]1[C@H](C)C(=O)O[C@@H]21`
(A) 0.85%

###

test: Cytotoxicity against in Balb/c mouse B cells at 10^-6 M after 48 hrs by MTT assay; assay type: cell-based; details: 1 µM
Metric: Activity

Cc1cc(OCc2cnnn2-c2ccc(F)cc2)c(C)c2c1CC[C@H]1[C@H](C)C(=O)O[C@@H]21    Non-toxic
CC(=O)Nc1ccc(-n2nncc2COc2cc(C)c3c(c2C)[C@@H]2OC(=O)[C@@H](C)[C@@H]2CC3)cc1    Toxic
Cc1cc(OCc2cnnn2-c2ccc3c(c2)OCO3)c(C)c2c1CC[C@H]1[C@H](C)C(=O)O[C@@H]21    Non-toxic
COc1ccc2cc(-n3nncc3COc3cc(C)c4c(c3C)[C@@H]3OC(=O)[C@@H](C)[C@@H]3CC4)ccc2c1    Non-toxic
Cc1cc(OCc2cnnn2-c2ccc(Cl)nc2)c(C)c2c1CC[C@H]1[C@H](C)C(=O)O[C@@H]21    Toxic

(Q) I have this molecule here, `CC(=O)Oc1cc(C)c2c(c1C)[C@@H]1OC(=O)[C@@H](C)[C@@H]1CC2` , and I need its recorded Activity.
(A) Non-toxic

(Q) I have this molecule here, `Cc1cc(OCc2cnnn2-c2ccc(-c3ccccc3)cc2)c(C)c2c1CC[C@H]1[C@H](C)C(=O)O[C@@H]21` , and I need its recorded Activity.
(A) Non-toxic

###

experiment: Cytotoxicity against in Balb/c mouse B cells at 10^-6 M after 48 hrs by MTT assay; format: cell-based; details: 1 µM
Metric: Activity

Cc1cc(OCc2cnnn2/C=C/c2ccccc2)c(C)c2c1CC[C@H]1[C@H](C)C(=O)O[C@@H]21    Non-toxic
Cc1cc(OCc2cnnn2-c2ccc(Br)c3ccccc23)c(C)c2c1CC[C@H]1[C@H](C)C(=O)O[C@@H]21    Non-toxic
Cc1cc(OCc2cnnn2-c2cc(F)c(F)cc2Br)c(C)c2c1CC[C@H]1[C@H](C)C(=O)O[C@@H]21    Toxic
